measuredOn: Sphingosine 1-phosphate receptor 4 (Homo sapiens)
protocol: activators of human S1P4 receptor – cell-based, primary screen (AID 1509);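 also: 0% = DMSO vehicle and 100% = reference agonist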
particulars: S1P4-expressing cell line, agonist reporter assay; at 4.98 µM; stronger effect = higher value
The campaign covered roughly 220,000 compounds. About 770 (0.35%) were called active. The sample holds actives, similar compounds and a random draw of the others, so the mix is not that of the screen.
measuredParameter: activation (%)

> print(dat)
                                    compound                                measuredon  unitsofmeasure  measured
 1    CCCNC(=O)c1ccccc1NC(=O)CSCc1ccc(OC)cc1  Sphingosine 1-phosphate receptor 4 (Homo sapiens)               %      1.75
 2  O=C(CC1C(=O)NCCN1CC(c1ccccc1)c1ccccc1)NCCc1cn[nH]c1 (stereo not given)  Sphingosine 1-phosphate receptor 4 (Homo sapiens)               %     -1.81
 3  COc1ccc(C2=NN(c3ccccc3)C(c3cccs3)C2)cc1 (stereo not given)  Sphingosine 1-phosphate receptor 4 (Homo sapiens)               %      1.42
 4  COc1ccc(C2CC(c3cccs3)=NN2C(=O)CSc2nncs2)cc1OC (stereo not given)  Sphingosine 1-phosphate receptor 4 (Homo sapiens)               %      0.18
 5  N/C(=N\OC(=O)c1ccc([N+](=O)[O-])cc1)c1ccccn1  Sphingosine 1-phosphate receptor 4 (Homo sapiens)               %     -0.02
 6  COc1ccc(C2CC(c3cccs3)=NN2c2ccc(F)cc2)cc1OC (stereo not given)  Sphingosine 1-phosphate receptor 4 (Homo sapiens)               %      19.4
 7  COc1ccc(C(C(=O)NC(C)(C)C)N(C(=O)Cn2nnc3ccccc32)c2ccc(C(C)=O)cc2)cc1O (stereo not given)  Sphingosine 1-phosphate receptor 4 (Homo sapiens)               %       0.1
 8  COc1ccc(C2CC(c3cccs3)=NN2c2nc(C)c(C(C)=O)s2)cc1OC (stereo not given)  Sphingosine 1-phosphate receptor 4 (Homo sapiens)               %      2.99
 9     O=C(OCc1ccc([N+](=O)[O-])cc1)c1ccccn1  Sphingosine 1-phosphate receptor 4 (Homo sapiens)               %     -1.16
10  COc1ccc(C2CC(c3cccs3)=NN2c2ccccc2)cc1 (stereo not given)  Sphingosine 1-phosphate receptor 4 (Homo sapiens)               %      11.6

====

measuredOn: Sphingosine 1-phosphate receptor 4 (Homo sapiens)
protocol: activators of human S1P4 receptor – cell-based, primary screen (AID 1509);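 also: 0% = DMSO vehicle and 100% = reference agonist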
particulars: S1P4-expressing cell line, agonist reporter assay; at 4.98 µM; stronger effect = higher value
Screen size: about 220,000 compounds; about 770 (0.35%) were called active. Many of the other results were omitted from the sample, so actives are more common in it than they were.
Readings of activation for the listed compounds
measuredParameter: activation

> print(dat)
                                    compound           measured
 1  COc1ccc(N(CC(=O)NC2CCCC2)C(=O)CS(=O)CC(=O)Nc2ccc3c(c2)OCO3)cc1 (stereo not drawn)    1.8% (inactive)
 2  Cc1cc(CNC(=O)c2cccc([N+](=O)[O-])c2)c2ccccc2n1   1.06% (inactive)
 3  CCN(CC)CCNC(=O)c1sc2ncn(CC(=O)Nc3ccc(C)c(Cl)c3)c(=O)c2c1C  -1.34% (inactive)
 4           O=C(CSc1nncn1-c1cccnc1)N1CCOCC1     44.7% (active)
 5  COc1ccccc1C1CC(=O)n2c(nc(-c3ccccc3)c2-c2ccccc2)S1 (stereo not drawn)  -1.26% (inactive)
 6  O=C(CSc1nnc(Cc2ccccc2)n1-c1ccccc1)N1CCOCC1  -2.13% (inactive)
 7  O=C(O)/C=C/C(=O)NNc1ccc([N+](=O)[O-])cc1  -0.64% (inactive)
 8  CC1=CC=CC2=N/C(=N\S(=O)(=O)c3ccc(F)cc3F)c3ccccc3CN12   1.89% (inactive)
 9  C=CCNC(=O)c1ccccc1NC(=O)c1ccc(Cl)c(S(=O)(=O)Nc2cccc(C)c2C)c1   2.53% (inactive)
10  CNC(=O)c1[nH]cnc1C(=O)N[C@@H](CC(C)C)C(=O)OC(C)(C)C   2.22% (inactive)
11  O=C(CCn1c(SCC(=O)c2ccccc2)nc2ccccc2c1=O)NCc1ccc(F)cc1   0.31% (inactive)
12  CCOc1ccc(N2C(=O)CC(N(CCc3ccc(OC)c(OC)c3)C(=S)Nc3ccccc3)C2=O)cc1 (stereo not drawn)   1.87% (inactive)
13  COc1ccc(S(=O)(=O)N2CCN(C(=O)c3cc(C)oc3C)CC2)cc1   0.82% (inactive)
14    CC(=O)Nc1ccc(Nc2c3ccccc3nc3ccccc23)cc1   4.18% (inactive)
15            Cc1ccc(NC(=O)Nc2ccccc2)c(Br)c1     19.4% (active)
16  Brc1ccc(-c2n(-c3ccccn3)c3ccccc3[n+]2-c2ccccn2)cc1  -0.47% (inactive)
17       CC(=O)Nc1ccccc1NC(=O)c1cc(C)cc(C)c1     52.2% (active)
18         Cc1noc(C)c1COC(=O)c1cc2ccccc2cc1O  -2.59% (inactive)
19         CSCc1ccc(C(=O)Nc2cc(C)cc(C)c2)cc1   0.79% (inactive)
20  CC(=O)c1ccc(N2CCN(C(=O)c3ccc4nc[nH]c4c3)CC2)cc1   0.76% (inactive)
21  O=[N+]([O-])c1ccc2[nH]c3c(c2c1)CCCC3O (stereo not drawn)   0.79% (inactive)
22  O=C(/C(=C/c1cccc(Cl)c1)c1nc2ccccc2[nH]1)c1ccccc1  -0.48% (inactive)
23  CC(=O)OC(C(=O)NC1CCCCC1)c1ccccc1 (stereo not drawn)   0.59% (inactive)
24  COCCN(CCOC)S(=O)(=O)c1ccc(/C(O)=C(\C#N)c2nc3ccccc3[nH]2)cc1   0.35% (inactive)
25    O=S(=O)(Nc1ccc(Cl)cn1)c1cnc(Cl)c(Br)c1   0.57% (inactive)
26  O=C(COC(=O)c1ccccc1F)Nc1cc(S(=O)(=O)N2CCOCC2)ccc1N1CCCC1  -0.01% (inactive)
27  O=C(CN1C(=O)NC(Cc2ccccc2)(Cc2ccccc2)C1=O)NCC1CCCCC1  -1.64% (inactive)
28       Cc1noc(C)c1COC(=O)Cn1c(C)nc2ccccc21  -0.11% (inactive)
29          Cc1ccc(C(=O)NC(=S)Nc2ccccc2C)cc1   1.14% (inactive)
30  COc1ccc(-n2c(C)cc(C(=O)COC(=O)c3cc(OC)c(OC)cc3NC(=O)c3cccs3)c2C)cc1  -0.44% (inactive)
31  Cn1c(SCC(=O)N2CCOCC2)nnc1-c1ccc2ncccc2c1   1.83% (inactive)
32  Cc1nn(CC(=O)Nc2ccc(N(C)C)cc2)c(C)c1[N+](=O)[O-]  -0.79% (inactive)
33  O=C(COC(=O)Cc1ccc(F)cc1)Nc1cc(S(=O)(=O)N2CCOCC2)ccc1N1CCCC1     17.3% (active)
34  CCC(=O)/C(=C(/O)c1ccccc1)c1nc2ccccc2[nH]1     12.3% (active)
35   Cc1ccccc1N1CCN(Cc2nc(Cc3ccccc3F)no2)CC1   0.64% (inactive)
36   O=C(Nc1ccc(N2CCOCC2)cc1)c1ccc2c(c1)OCO2   1.77% (inactive)
37  O=C(CCCn1c(SCC(=O)c2ccc(F)cc2)nc2ccccc2c1=O)NCc1ccco1     30.4% (active)
38  Cc1ccc(-n2c(C)cc(C(=O)CN3C(=O)C(=O)N(C4CCCC4)C3=O)c2C)cc1   0.78% (inactive)
39  COC(=O)C1=C(C)N(C)C(=O)NC1c1ccc([N+](=O)[O-])o1 (stereo not drawn)   0.41% (inactive)
40  Cc1cc(C(=O)COC(=O)C2CC2)c(C)n1-c1ccc(F)cc1    1.5% (inactive)
41   Cc1noc(C)c1COC(=O)COc1ccc(-c2ccccc2)cc1       36% (active)
42       Cc1cc(C)c(C#N)c(SCC(=O)Nc2ccccc2)n1   2.39% (inactive)
43  COc1ccc(C(=O)NN2C(=O)C3C(c4ccccc4)C=CC(c4ccccc4)C3C2=O)cc1 (stereo not drawn)  -0.98% (inactive)
